Measured values drawn from patent US20250195513A1 for this set.

# assayed system: IRAK4 (Homo sapiens)
# Construct: endogenous in cells; host or cells: Karpas299
# assay summary: IRAK4 Degradation Assay (Karpas299, HTRF/TR-FRET)
# Type: cell-based
# cond: Karpas-299 cells, 5 h treatment; read-out: IRAK4 in Karpas-299 (5 h) DC50
measured endpoint: DC50 (nM)

Solved cases (2 shown):
molecule	assayed system	measure unit	value
[2H]C([2H])([2H])Oc1cc2nn([C@H]3CC[C@H](N4CCN(C(=O)C5CN(c6cc(F)c(N7CCC(=O)NC7=O)c(F)c6)C5)CC4)CC3)cc2cc1NC(=O)c1cccc(C(F)(F)F)n1	IRAK4 (Homo sapiens)	nM	17
O=C1CCC(c2ccc(N3CC(C(=O)N4CCN([C@H]5CC[C@H](n6cc(NC(=O)c7coc(-c8ccnc(NCC(F)(F)F)c8)n7)c(C(F)F)n6)CC5)CC4)C3)cc2)C(=O)N1 (stereo partly shown)	IRAK4 (Homo sapiens)	nM	12

(I) COc1cc2nn(C3CCN(C4CCN(C(=O)C5CN(c6cc(F)c([C@H]7CCC(=O)NC7=O)c(F)c6)C5)CC4)CC3)cc2cc1NC(=O)c1cccc(C(F)(F)F)n1
(II) O=C1CC[C@H](c2c(F)cc(N3CC[C@@H](C(=O)N4CCN([C@H]5CC[C@H](n6cc(NC(=O)c7coc(-c8ccnc(NCC(F)(F)F)c8)n7)c(C(F)F)n6)CC5)CC4)C3)cc2F)C(=O)N1
Task: From the recorded data, which exceeds the other in DC50: I or II ? Answer with the label corresponding to your selection.
Output: I
(I: 16 nM, II: 8.8 nM)

###

# assayed system: IRAK4 (Homo sapiens)
# Construct: endogenous in cells; host or cells: Karpas299
# assay summary: IRAK4 Degradation Assay (Karpas299, HTRF/TR-FRET)
# Format: cell-based
# cond: Karpas-299 cells, 5 h treatment; read-out: IRAK4 in Karpas-299 (5 h) DC50
measured endpoint: DC50 (nM)

(A) COc1cc2nn([C@H]3CC[C@H](N4CCN(C(=O)[C@@H]5CCN(c6cc(F)c(N7CCC(=O)NC7=O)c(F)c6)C5)CC4)CC3)cc2cc1NC(=O)c1cccc(C(F)(F)F)n1 [Example 177]
(B) COC[C@H]1CN([C@H]2CC[C@H](n3cc4cc(NC(=O)c5ccc6cc(C#N)cnn56)c(C(C)(C)O)cc4n3)CC2)CCN1C(=O)C1CN(c2cc(F)c(N3CCC(=O)NC3=O)c(F)c2)C1 [Example 315]
(C) COc1cc2nn([C@H]3CC[C@H](NC(=O)C4CCN(c5ccc6c(c5)C(=O)N(C5CCC(=O)NC5=O)C6=O)CC4)CC3)cc2cc1NC(=O)c1cccc(C(F)(F)F)n1 (stereo partly drawn) [Example 32]
Task: Please produce an ascending ranking of these molecules based on DC50. Use the labels to give the ranking in the order requested.
Output: B, C, A
(B: 0.9 nM, C: 15 nM, A: 44 nM)

###

# assayed system: IRAK4 (Homo sapiens, UniProt Q9NWZ3)
# Construct: endogenous in cells; host or cells: Karpas299
# Sequence (Q9NWZ3 whole entry): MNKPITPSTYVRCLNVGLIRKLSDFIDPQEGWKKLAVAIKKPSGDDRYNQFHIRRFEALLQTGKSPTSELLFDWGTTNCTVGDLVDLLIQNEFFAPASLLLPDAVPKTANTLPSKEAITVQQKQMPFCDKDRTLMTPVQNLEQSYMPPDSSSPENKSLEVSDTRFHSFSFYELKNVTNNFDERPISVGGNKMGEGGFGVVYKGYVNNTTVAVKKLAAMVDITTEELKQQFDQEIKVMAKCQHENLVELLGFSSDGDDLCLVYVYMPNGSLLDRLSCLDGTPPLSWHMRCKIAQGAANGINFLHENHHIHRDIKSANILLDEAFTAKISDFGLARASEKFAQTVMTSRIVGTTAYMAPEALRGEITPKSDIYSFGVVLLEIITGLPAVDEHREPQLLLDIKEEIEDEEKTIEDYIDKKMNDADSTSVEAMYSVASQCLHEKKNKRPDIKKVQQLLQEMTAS
# assay summary: IRAK4 Degradation Assay (Karpas299, HTRF/TR-FRET)
# Format: cell-based
# cond: Karpas-299 cells, 24 h treatment; maximum percentage of degradation; read-out: IRAK4 in Karpas-299 (24 h) Dmax (%)
measured endpoint: Dmax (%)

molecule	assayed system	Dmax, %
CC(C)(O)C[C@H]1CN(CCc2cc(F)c([C@H]3CCC(=O)NC3=O)c(F)c2)CCN1[C@H]1CC[C@H](n2cc3cc(NC(=O)c4ccc5cc(C#N)cnn45)c(C(C)(C)O)cc3n2)CC1	IRAK4 (Homo sapiens, UniProt Q9NWZ3)	96
CC(C)(O)c1cc2nn([C@H]3CC[C@H](N4CCN(CC5CCN(c6ccc7c(c6)CN(C6CCC(=O)NC6=O)C7=O)CC5)CC4)CC3)cc2cc1NC(=O)c1ccc2cc(C#N)cnn12 (stereo partly shown)	IRAK4 (Homo sapiens, UniProt Q9NWZ3)	95
CC1(C)CN(c2cc(F)c([C@H]3CCC(=O)NC3=O)c(F)c2)C[C@@H]1C(=O)N1CCN([C@H]2CC[C@H](n3cc(NC(=O)c4coc(-c5ccnc(NCC(F)(F)F)c5)n4)c(C(F)F)n3)CC2)CC1	IRAK4 (Homo sapiens, UniProt Q9NWZ3)	97
CC(C)(O)c1cc2nn(C34CC(N5CCN(C(=O)C6CN(c7cc(F)c([C@H]8CCC(=O)NC8=O)c(F)c7)C6)CC5)(C3)C4)cc2cc1NC(=O)c1ccc2cc(C#N)cnn12	IRAK4 (Homo sapiens, UniProt Q9NWZ3)	98
